These measurements were taken from paper PMC2860192.

assay_system: GluR3 (GluR3o, flop variant), homomeric AMPA-type receptor (Rattus norvegicus)
assay_explanation: two-electrode voltage clamp, Xenopus oocytes, block of kainate current
parameter: IC50 (nM)
Respond with the bare value in nM.

Which value of IC50 has been reported for N[C@@H](C(=O)O)[C@H](O)[C@@]1(C(=O)O)CC[C@H](C[C@H](NC(=O)c2cc(Cl)c(O)c(Cl)c2)C(=O)O)N1 [(−)-kaitocephalin] in the records?
502

---

assay_system: GluR6 (GluR6(R), edited version), homomeric KA-type receptor (Rattus norvegicus, UniProt P42260, Q621R)
Sequence (P42260 32-908 Q621R): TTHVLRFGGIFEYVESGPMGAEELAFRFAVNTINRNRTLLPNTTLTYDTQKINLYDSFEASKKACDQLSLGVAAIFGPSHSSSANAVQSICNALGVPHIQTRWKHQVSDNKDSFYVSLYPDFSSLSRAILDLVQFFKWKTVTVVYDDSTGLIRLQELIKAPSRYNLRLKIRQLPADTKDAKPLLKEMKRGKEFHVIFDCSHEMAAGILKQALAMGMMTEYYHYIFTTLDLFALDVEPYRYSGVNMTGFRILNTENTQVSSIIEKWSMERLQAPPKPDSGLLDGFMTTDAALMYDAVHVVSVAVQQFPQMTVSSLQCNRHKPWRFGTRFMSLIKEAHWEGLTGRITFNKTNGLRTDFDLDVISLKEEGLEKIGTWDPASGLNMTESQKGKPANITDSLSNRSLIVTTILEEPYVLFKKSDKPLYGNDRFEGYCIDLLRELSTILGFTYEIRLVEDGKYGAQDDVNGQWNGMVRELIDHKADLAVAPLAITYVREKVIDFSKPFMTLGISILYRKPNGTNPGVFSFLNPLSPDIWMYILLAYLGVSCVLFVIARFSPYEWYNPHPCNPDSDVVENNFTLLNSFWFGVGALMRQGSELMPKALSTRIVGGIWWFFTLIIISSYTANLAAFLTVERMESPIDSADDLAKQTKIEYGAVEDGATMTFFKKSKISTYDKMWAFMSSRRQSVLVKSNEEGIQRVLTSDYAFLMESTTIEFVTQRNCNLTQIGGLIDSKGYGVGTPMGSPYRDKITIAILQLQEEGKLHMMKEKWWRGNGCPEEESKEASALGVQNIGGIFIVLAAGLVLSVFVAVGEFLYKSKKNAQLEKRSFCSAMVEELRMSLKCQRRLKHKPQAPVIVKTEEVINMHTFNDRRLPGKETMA
assay_explanation: two-electrode voltage clamp, Xenopus oocytes, block of kainate current
pIC50: −log10 of the molar value.
parameter: pIC50

Which value of pIC50 has been reported for N[C@@H](C(=O)O)[C@H](O)[C@@]1(C(=O)O)CC[C@H](C[C@H](NC(=O)c2cc(Cl)c(O)c(Cl)c2)C(=O)O)N1 [(−)-kaitocephalin] in the records?
~4.00
